Recorded values, source paper PMC9482650.

test-system: T1, SNTG2, Q9NY99
T1 sequence (Q9NY99 68-166, limits assumed, looked up): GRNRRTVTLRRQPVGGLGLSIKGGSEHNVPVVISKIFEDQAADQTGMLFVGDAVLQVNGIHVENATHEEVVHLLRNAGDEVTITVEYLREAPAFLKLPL
method-summary: holdup assay
Design: key: below the threshold = too weak to quantify, mostly under pKd 3.1 to 4
protocol-conditions: plain residues with an end cap or a label only (N-terminal biotin on a linker: ado-ado)
reported-endpoint: pKd

> print(dat)
                        binder               result
1   PALKNGQYWV [CSPG4, Q6UVK1]  below the threshold
2   AKADAQESRL [PLCB2, Q00722]                 4.81
3  PLATCDETSI [SEMA4F, O95754]                 4.55
4   VISSDDLTEL [CAPN6, Q9Y6Q1]  below the threshold
5  SKQFDKNAYV [CLDN10, P78369]  below the threshold
6   FVFESRKEIL [TBPL1, P62380]  below the threshold
7     SQPLLVHDDV [KIT, P10721]  below the threshold
8  EKPIDSETKM [SLC1A3, P43003]  below the threshold
9   GNDPDRGTSI [GRID2, O43424]  below the threshold

With those in mind, consider the next binder.
Exam item: Any idea what its pKd is? The binder is EFKQTSSFLV [JAM1, Q9Y624]
Marked response: below the threshold
